- Tested on: A673/TR/shEF
- test: cell viability (LOESS-normalised, relative to median of negative controls) (log2 ratio); higher = more viable cells (less compound effect), active = hit call of the paper (over 3 MAD below the median)
- assay conditions: 2.8 µM; library screen: screen3; EWS-FLI1 expression: low (doxycycline-induced shRNA knockdown); treatment time: 72 h
The whole screen tested about 3,200 compounds, of which about 300 (9.4%) showed activity. The sample as a whole holds a higher share of actives than the screen did.
Mark criterion met for cell viability (log2) under 0.05, criterion not met if at or over.

Use the examples below as a reference point.
q: Below 0.05 on cell viability (log2)? Entry Cc1cn([C@@H]2C[C@@H](O)[C@H](CO)O2)c(=O)[nH]c1=O
a: criterion not met

q: Would you kindly verify if cell viability (log2) of Cn1c(=O)c2[nH]cnc2n(C)c1=O is strictly less than 0.05?
a: criterion not met

q: hey, is cell viability (log2) for CCc1nc(N)nc(N)c1-c1ccc(Cl)cc1 lower than 0.05 or not?
a: criterion met

q: Hi there! Is cell viability (log2) for Cc1cn([C@H]2C=C[C@@H](CO)O2)c(=O)[nH]c1=O below 0.05, do you know?
a: criterion met

q: Is cell viability (log2) of S=c1nc[nH]c2nc[nH]c12 strictly below 0.05?
a: criterion not met

Continuing:
q: Please indicate whether the reported cell viability (log2) of COCCn1c2c([n+](Cc3cnccn3)c1C)C(=O)c1ccccc1C2=O is strictly below 0.05.
a: criterion met

q: Lab log: compare recorded cell viability (log2) with 0.05; is it strictly lower for O=c1[nH]c(=O)n([C@H]2C[C@H](O)[C@@H](CO)O2)cc1C(F)(F)F ?
a: criterion not met

q: A record lists O=C(c1cc(Cc2n[nH]c(=O)c3ccccc23)ccc1F)N1CCN(C(=O)C2CC2)CC1 . Is its cell viability (log2) below 0.05?
a: criterion met

q: Does the reported cell viability (log2) of Nc1nc(=S)c2[nH]cnc2[nH]1 stay below 0.05?
a: criterion not met

q: Criterion: cell viability (log2) strictly below 0.05. Is it met by CN1CCCC(n2nc(Cc3ccc(Cl)cc3)c3ccccc3c2=O)CC1 (stereo unspecified) ?
a: criterion not met

q: Bench note: check whether CCCCCOC(=O)Nc1nc(=O)n([C@@H]2O[C@H](C)[C@@H](O)[C@H]2O)cc1F shows cell viability (log2) below 0.05
a: criterion not met

Values from the supplement of paper PMC6089552
